experiment: gradient 5% acetonitrile 3 min, to 50% in 2 min, to 85% in 15 min, held 3 min, 100 µL/min; settings: column: Zorbax Extend-C18 2.1 x 50 mm; eluents: water / acetonitrile, 0.1% formic acid
measurementLabel: RP-LC retention time (s)

compound | RP-LC retention time (s)
COCCCNC(=O)[C@@H]1[C@H](c2cc(OC)c(OC)c(OC)c2)c2cc3c(cc2[C@H](O)[C@H]1CO)OCO3 | 630
CCC(=O)N(C1CCOCC1)C1CCN(Cc2cn(CC)c3ccccc23)CC1 | 674
CCOc1cccc(CNC(=O)C2CCN(Cc3cn(C)c4ccccc34)CC2)c1 | 686
Cn1c(=O)c2ccn(CC(=O)N3CCN(c4ccccc4F)CC3)c2n(C)c1=O | 851
CCCCC(=O)Nc1cc(C(=O)O)ccc1N(C)CCc1c(C)nn(C)c1C | 596

1: O=S(=O)(c1cc(-c2nnc(C3CC3)o2)co1)N1CCN(c2ccccc2F)CC1
2: Cc1cc(C)cc(S(=O)(=O)N2CCN(CCc3cn(C)c4ncccc34)CC2)c1
QUERY: Name the one with the greater RP-LC retention time value, either 1 or 2 as given. Lab note: record the label of whichever item you select.
RESULT: 1

====

experiment: gradient 5% acetonitrile 3 min, to 50% in 2 min, to 85% in 15 min, held 3 min, 100 µL/min; details: column: Zorbax Extend-C18 2.1 x 50 mm; eluents: water / acetonitrile, 0.1% formic acid
measurementLabel: RP-LC retention time (s)

Study these solved cases before continuing.
molecule | unitSpec | endpointResult
Cc1cc(C)n(Cc2nc(-c3ccc(NC(=O)c4ccc5c(c4)OCO5)cc3)oc2C)n1 | s | 888
COc1ccc(N2CCN(C(=O)CCN3C(=O)C4C5C=CC(C5)C4C3=O)CC2)cc1 (stereo not drawn) | s | 650
CC(=O)N[C@@H]1CN(C(=O)Cc2ccccc2Br)C[C@H]1CO | s | 610
Cn1nccc1-c1cccc(-c2noc(-c3cnccn3)n2)c1 | s | 786
CCc1nc2cc(N3CCC(C(=O)NC(C)C)CC3)cnc2nc1CC | s | 704

A: CCn1c(=O)c(NCc2ccc(C(C)C)cc2)nc2ccncc21
B: CC(O)(CNC(=O)C(=O)NCCC1=CCCCC1)c1cccs1 (stereo not drawn)
QUERY: Lab note: check whether A or B shows the higher recorded RP-LC retention time. // respond with label for picked entry
RESULT: B
(B: 1120 s, A: 720 s)

1: CCN(Cc1cccnc1)C(=O)CN(c1ccc(OC)nc1)S(=O)(=O)c1ccccc1C
2: O=C(Cc1csc(-c2ccccc2)n1)Nc1nc(-c2ccccc2Cl)cs1
QUERY: Choose between 1 and 2 : whose measured RP-LC retention time value is numerically larger? // return label of chosen record
RESULT: 2
(2: 1210 s, 1: 734 s)

A: COc1ccc(-c2noc(Cc3nnc(-c4ccc(F)cc4)o3)n2)cc1
B: COc1ccc(NC(=O)N2C[C@H]3C[C@H](C2)[C@H]2CCCC(=O)N2C3)cc1OC
QUERY: From the recorded data, which exceeds the other in RP-LC retention time: A or B ? Use the label to indicate which entry you chose.
RESULT: A
(A: 972 s, B: 612 s)

====

assay: gradient 5% acetonitrile 3 min, to 50% in 2 min, to 85% in 15 min, held 3 min, 100 µL/min; details: column: Zorbax Extend-C18 2.1 x 50 mm; eluents: water / acetonitrile, 0.1% formic acid
measurementLabel: RP-LC retention time (s)

Below are worked cases with known answers.
compound | RP-LC retention time [s]
Cc1sc(-c2nnc(C(=O)N3CCCC3)o2)cc1S(=O)(=O)N1CCN(C)CC1 | 607
Cc1ccccc1Nc1c(-c2cccc(Br)c2)nc2ccc(Cl)cn12 | 1100
Cc1ccc(NC(=O)Cn2nc(N(C)C)c3ccccc3c2=O)cc1F | 920
CC(Cc1ccco1)NC(=O)Cn1cccc1-c1nnc(-c2ccccc2)o1 (stereo not drawn) | 898
O=C(CCC1CCN(S(=O)(=O)c2cccc(F)c2)CC1)NC1CC1 | 781

1: Cc1ccc(N2CC(c3nc(-c4cccnc4)no3)CC2=O)cc1Cl (stereo not drawn)
2: CC(C)n1cnc2cc(CNC(=O)c3ccco3)ccc21
QUERY: // compare measured RP-LC retention time between 1 and 2 ; output the lower one State your choice using its label.
RESULT: 2
(2: 568 s, 1: 862 s)
